Hello, the source for this data is ChEMBL document CHEMBL3792374, in case you need it.

experiment: Induction of nitric oxide release in potassium phosphate buffer at pH 7.4 at 0.1 mM after 45 mins by Griess assay
Type: physicochemical
test.parameters: pH 7.4, 0.75 h, 100 µM
property.measured: Activity (µM)

# compound, uom, experimental.value
measured = [
    ("CCCCC(OC(=O)CN1CCN(CCCOc2ccc(-c3cc(=S)ss3)cc2)CC1)c1ccccc1C(=O)Oc1ccc(/C=C/C(=O)OCCCCO[N+](=O)[O-])cc1OC (racemic)", "µM", 1.89),
    ("CCCCC(OC(=O)CN1CCN(CCOc2ccc(-c3cc(=S)ss3)cc2)CC1)c1ccccc1C(=O)Oc1ccc(/C=C/C(=O)OCCCCCCO[N+](=O)[O-])cc1OC (racemic)", "µM", 5.98),
    ("CCCCC(OC(=O)CN1CCN(CCCCCCOc2ccc(-c3cc(=S)ss3)cc2)CC1)c1ccccc1C(=O)Oc1ccc(/C=C/C(=O)OCCCCCCO[N+](=O)[O-])cc1OC (racemic)", "µM", 6.09),
]
